Let's look at some compounds and their measured ID50 (amount of inhibitor for 50% inhibition).
Tested Target: papain (Carica papaya)
Construct: purchased Sigma Chem. Co
Sequence (P00784 134-345): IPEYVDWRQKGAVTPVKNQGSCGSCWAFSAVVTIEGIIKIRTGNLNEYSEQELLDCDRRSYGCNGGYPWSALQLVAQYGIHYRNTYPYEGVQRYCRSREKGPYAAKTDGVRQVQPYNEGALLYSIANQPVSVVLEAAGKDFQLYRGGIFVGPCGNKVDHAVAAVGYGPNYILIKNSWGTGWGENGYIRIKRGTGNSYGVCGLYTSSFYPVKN
Assay Remarks: Papain inhibitory activity (milk casein digestion)
Type: biochemical
Setup Conditions: papain 80 μg/ml 0.5 ml, cysteine, pH 6.8, 1% milk casein, 40° C., 10 minutes
Method: Papain inhibitory activity of the compounds of this invention was assayed as follows: To 0.5 ml of a solution of papain (80 μg/ml, Sigma Chem. Co., 2x cry.), were added 0.25 ml of 40 mM cysteine dissolved in 20 mM disodium ethylenediamine tetraacetic acid solution adjusted pH to 6.8 with sodium hydroxide and 0.25 ml of 33 mM phosphate buffer (pH 6.8) with or without inhibitor. […] The extinction of the filtrate was read at 280 nm. […]
Measured Property: ID50 (amount of inhibitor for 50% inhibition)

Compound: C=CCOC(=O)C1OC1C(=O)N[C@@H](Cc1ccc(O)cc1)C(=O)OCc1ccccc1 (stereo partly shown)
Reported: 3.40 γ

Compound: O=C(O)[C@H]1O[C@@H]1C(=O)OCc1ccc(Cl)cc1Cl (relative stereo)
Reported: 0.11 γ

Compound: C#CCOC(=O)[C@H]1O[C@@H]1C(=O)O (relative stereo) [EP-141, propargyl potassium epoxysuccinate]
Reported: 1.45 γ

Compound: CCOC(=O)[C@H]1O[C@@H]1C(=O)NCC(=O)OCc1ccccc1 (relative stereo)
Reported: 43.90 γ

Compound: O=C(O)[C@H]1O[C@@H]1C(=O)OCc1ccccc1Cl (relative stereo) [EP-108, o-chlorobenzyl potassium epoxysuccinate]
Reported: 0.09 γ

Compound: O=C(O)[C@H]1O[C@@H]1C(=O)OCCCc1ccccc1 (relative stereo) [EP-132, 3'-phenylpropyl potassium epoxysuccinate]
Reported: 0.17 γ

Compound: CCOC(=O)[C@H](Cc1ccccc1)NC(=O)C1OC1C(=O)OC1CCCCC1C (stereo partly shown)
Reported: 1.21 γ

----------
Let's look at some compounds and their measured ID50 (amount of inhibitor for 50% inhibition).
Tested Target: papain (Carica papaya)
Construct: purchased Sigma Chem. Co
Assay Remarks: Papain inhibitory activity (milk casein digestion)
Type: biochemical
Setup Conditions: papain 80 μg/ml 0.5 ml, cysteine, pH 6.8, 1% milk casein, 40° C., 10 minutes
Measured Property: ID50 (amount of inhibitor for 50% inhibition)

Compound: O=C(OCC1CCC=CCCC1)[C@@H]1O[C@H]1C(=O)OCC1CCC=CCCC1 (relative stereo) [EP-73, di-4-cyclooctenemethyl epoxysuccinate]
Tested Target: papain (Carica papaya)
Reported: 0.10 γ
//
Compound: Cc1ccccc1COC(=O)[C@@H]1O[C@H]1C(=O)O (relative stereo) [EP-92, o-methylbenzyl potassium epoxysuccinate]
Tested Target: papain (Carica papaya)
Reported: 0.10 γ
//
Compound: O=C(OCc1c(Cl)ccc2ccccc12)[C@@H]1O[C@H]1C(=O)OCc1c(Cl)ccc2ccccc12 (relative stereo) [EP-83]
Tested Target: papain (Carica papaya)
Reported: 1.55 γ
//
Compound: COC(=O)[C@H](CCCNC(=N)N)NC(=O)C1OC1C(=O)O (stereo partly shown) [EP-200]
Tested Target: papain (Carica papaya)
Reported: 0.88 γ
//
Compound: CCOC(=O)C1OC1C(=O)N[C@@H](CCCCNC(=O)OCc1ccccc1)C(=O)OCc1ccccc1 (stereo partly shown) [EP-163]
Tested Target: papain (Carica papaya)
Reported: 29.07 γ
//
Compound: CCOC(=O)C1OC1C(=O)N[C@@H](C)C(=O)OC(C)(C)C (stereo partly shown) [EP-192]
Tested Target: papain (Carica papaya)
Reported: 40.50 γ
//
Compound: C#CCOC(=O)C1OC1C(=O)N[C@@H](CCCCNC(=O)OCc1ccccc1)C(=O)OCc1ccccc1 (stereo partly shown) [EP-165]
Tested Target: papain (Carica papaya)
Reported: 22.50 γ
